Exercise: state measured IC50 for each of the compounds provided.
TARGET OR TEST SYSTEM: p21ras farnesyltransferase from EJ3 cells (Mus musculus, UniProt Q61239+Q8K2I1)
Construct: p21ras farnesyltransferase was partially purified from EJ3 cells by DEAE-chromatography; endogenous in cells; host or cells: EJ3 cells (H-ras-transformed Balb/c 3T3 murine fibroblasts)
ASSAY PROTOCOL: p21ras farnesyltransferase inhibition, enzyme from EJ3 cells
Type: biochemical, murine
STUDY CONDITIONS: enzyme from EJ3 cells, FIG. 5A/5B; read-out: p21ras farnesyltransferase IC50
Peptide text beside a SMILES is read from it. * marks the point of attachment. Cbz = O=C(OCc1ccccc1)*

Reference set, count: 3
[[record]]
compound = "CC[C@H](C)[C@H](NC(=O)[C@@H](NC(=O)[C@H](CSC(=O)OCc1ccccc1)NC(=O)OCc1ccccc1)C(C)C)C(=O)N[C@@H](CCSC)C(=O)OC [BBM-CVIM] (Cbz-C(Cbz)VIM-OMe)"
reported_property = "IC50"
assay_value = "> 10 µM"

[[record]]
compound = "COC(=O)[C@H](CCSC)NC(=O)c1cccc(CNC(=O)[C@H](CSC(=O)OCc2ccccc2)NC(=O)OCc2ccccc2)c1"
reported_property = "IC50"
assay_value = "> 100 µM"

[[record]]
compound = "CC[C@H](C)[C@H](NC(=O)[C@H](CS)NC(=O)[C@@H](N)C(C)C)C(=O)N[C@@H](CCSC)C(=O)O [VCIM, reference compound] (H-VCIM-OH)"
reported_property = "IC50"
assay_value = "> 10 µM"


Query: For the compound shown here, `CSCC[C@H](NC(=O)c1cccc(CNC(=O)[C@@H](N)CS)c1)C(=O)O` , give the reported IC50.
Result: 2 µM

###

Assignment: determine reported IC50 for the given compounds.
TARGET OR TEST SYSTEM: p21ras farnesyltransferase from human colon carcinoma (COLO-205) (Homo sapiens, UniProt P49354+P49356)
Construct: p21ras farnesyltransferase from 60,000×g supernatant fractions was then partially purified by DEAE-sephacel chromatography; endogenous in cells; host or cells: COLO-205 human colon carcinoma cells (cytosolic 60,000×g supernatant, DEAE-sephacel fraction)
ASSAY PROTOCOL: p21ras farnesyltransferase activity assay, enzyme from COLO-205
Format: biochemical
STUDY CONDITIONS: partially purified enzyme from COLO-205, transfer of farnesyl to recombinant p21 H-ras; read-out: IC50 (μM) COLO-205
Peptide text beside a SMILES is read from it.

Solved cases below.
[[record]]
compound = "CSCC[C@H](NC(=O)[C@@H](NC(=O)[C@@H](NC(=O)[C@@H](N)CS)C(C)C)C(C)C)C(=O)O [CVVM, Cys-Val-Val-Met, reference compound] (H-CVVM-OH)"
reported_property = "IC50"
assay_value = "0.46 µM"

[[record]]
compound = "CC(C)C[C@H](NC(=O)c1cccc(CNC(=O)[C@@H](N)CS)c1)C(=O)O"
reported_property = "IC50"
assay_value = "> 10 µM"


// next item, IC50 requested
Query: Look at this compound and give its reported IC50. `CSCC[C@H](NC(=O)c1cccc(CNC(=O)[C@@H](N)CS)c1)C(=O)O`
Result: 0.06 µM

###

TARGET OR TEST SYSTEM: p21ras farnesyltransferase from Burkitt's lymphoma (Daudi) (Homo sapiens, UniProt P49354+P49356)
Construct: Partially purified p21ras farnesyltransferase from human tumors; endogenous in cells; host or cells: Daudi Burkitt's lymphoma cells
ASSAY PROTOCOL: p21ras farnesyltransferase activity assay, enzyme from Daudi
Format: biochemical
STUDY CONDITIONS: read-out: IC50, p21ras farnesyltransferase from Daudi
Peptide text beside a SMILES is read from it.
REPORTED PROPERTY: pIC50
Answers are plain numbers, as −log10 of the molar value.

Worked examples, 2 compounds total:
[[record]]
compound = "N[C@@H](CS)C(=O)NCc1cccc(C(=O)N[C@@H](Cc2ccccc2)C(=O)O)c1"
assay_value = 6.22

[[record]]
compound = "CC[C@H](C)[C@H](NC(=O)[C@@H](NC(=O)[C@@H](N)CS)C(C)C)C(=O)N[C@@H](CCSC)C(=O)O [CVIM, Cys-Val-Ile-Met, reference compound] (H-CVIM-OH)"
assay_value = 6.72


Query: State the recorded pIC50 for this entry: `CSCC[C@H](NC(=O)c1cccc(CNC(=O)[C@@H](N)CS)c1)C(=O)O`
Result: 6.92
